Each recorded value in this set is attributed to the array DNA melting data of Ke et al. (doi:10.1101/2024.01.08.574731).

ASSAY TEXT: melting temperature; fluorescence melt of hairpins on a sequencing array, two-state fit, raised by 9.35 °C to match UV melts
RECORDED CONDITIONS: sodium 0.088 M
Binary classification by Tm, with 50 °C as an inclusive lower bound for rule met; all other cases are rule not met.

Consider the worked cases shown below.
1. GGGGGTGGAAACGCTCCC (((.(.(....).).))) | rule not met
2. GATCCAATGATGGATC ((((((....)))))) | rule not met
3. GATCGTGTGGACGATC ((((((....)))))) | rule met
4. GCTTTGCGAAAGCAGAGC (((.(((....))).))) | rule met
5. GCTCCGCGAAAGCTGCGC ((.(.((....)).).)) | rule not met

Quick check: does GCGAAGCGAAAGCATGGC ((.(.((....)).).)) have Tm greater than or equal to 50 °C?
rule not met

Reported Tm reaches at least 50 °C for GTACGCGAAAGCGAGTAC ((((((....)))..))) ?
rule not met

Would you say GATCGAGCGCTCGATC ((((((....)))))) shows Tm at minimum 50 °C?
rule met

hey, is Tm for this one >= 50 °C? GCTGTCGAAAGACCTAGC ((((((....)))..)))
rule not met

Textbook exercise: given the entry GTGAGTGGAAACGCTCAC (((((.(....).))))) , state whether its Tm is greater than or equal to 50 °C.
rule met

###

ASSAY TEXT: melting temperature; fluorescence melt of hairpins on a sequencing array, two-state fit, raised by 9.35 °C to match UV melts
RECORDED CONDITIONS: sodium 0.088 M
READOUT KIND: Tm (°C)
# number only, unit °C dropped from output

1. GGTTTTGGAAACGAAACC (((((.(....).))))) | 47.5
2. GACTGGGGAAACCCAGTC (((((((....))))))) | 66.6
3. GCGACTATCGC ((((...)))) | 46.6

May I ask what Tm has been recorded for GCGGCCGTCCGC ((((....)))) ?
58.6

Reported Tm for GCATGGCGAAAGCCTGC (((.(((....)))))) : what is it?
63.8

Look at this sequence and give its reported Tm. GAGATCGGAAACGATTTC ((.((((....)))).))
42.3

I would be grateful if you could share the reported Tm for GATCGCAATGGCGATC ((((((....)))))) .
67.4

###

# maps each entry to its Tm
ASSAY TEXT: melting temperature; fluorescence melt of hairpins on a sequencing array, two-state fit, raised by 9.35 °C to match UV melts
RECORDED CONDITIONS: sodium 0.088 M
Please state the figure in °C; there is no need to write the unit.

1. GATCCTCGAAGGATC ((((((...)))))) | 50.1
2. GCGTTCACGAAAGTGCGC (((..(((....)))))) | 51.4

Please turn your attention to the following entry.
So what's the measured Tm for this one? GGCAGAACGAAAGTTGCC (((..(((....))))))
50.9

###

ASSAY TEXT: melting temperature; fluorescence melt of hairpins on a sequencing array, two-state fit, raised by 9.35 °C to match UV melts
RECORDED CONDITIONS: sodium 0.088 M
Collected Tm values appear next to each entry.
Report the figure in °C without appending any unit label.

Look over these answered cases.
1. GTGCAAGGAAACTTGCGC (.(((((....))))).) | 59.1
2. GCGGGGGTCCGC ((((....)))) | 61.7
3. GCGATGCCGAAAGGCCGC (((..(((....)))))) | 59.3

// next item, Tm requested
Request the reported Tm associated with GGCCCCGGAAACGGGACC ((.((((....)))).))
59
